Cited source for all entries: patent US7648983B2

Listing of entries alongside the reported IC50.
biological target: beta-secretase (BACE) in primary cortical neurons from PDAPP transgenic embryonic mice (Mus musculus); construct: endogenous in cells; host or cells: primary cortical neurons from Embryonic Day 16 PDAPP transgenic mouse embryos; assay: PDAPP primary neuronal assay (Abeta ELISA); assay type: cell-based; settings: Table 29; comparator of WO 2007/049532 and enantiomers; read-out: PDAPP Neuron A-beta (1-40) ELISA IC50
Sequence (P56818 46-501): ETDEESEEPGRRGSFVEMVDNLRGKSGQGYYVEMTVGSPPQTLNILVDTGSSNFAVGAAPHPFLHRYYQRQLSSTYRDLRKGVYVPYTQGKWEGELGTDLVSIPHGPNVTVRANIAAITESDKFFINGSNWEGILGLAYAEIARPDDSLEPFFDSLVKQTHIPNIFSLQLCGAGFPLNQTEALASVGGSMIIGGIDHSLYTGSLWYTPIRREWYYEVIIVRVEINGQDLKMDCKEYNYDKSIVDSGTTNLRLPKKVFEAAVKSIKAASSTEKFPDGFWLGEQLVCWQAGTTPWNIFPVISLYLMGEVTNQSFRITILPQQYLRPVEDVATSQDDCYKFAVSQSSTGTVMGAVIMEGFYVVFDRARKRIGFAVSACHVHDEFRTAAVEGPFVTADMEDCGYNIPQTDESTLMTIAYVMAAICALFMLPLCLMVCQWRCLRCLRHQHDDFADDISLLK
MEASURED_METRIC: IC50 (µM)

                                   molecule  unit_name  recorded_number
0  C[C@]1(c2ccc(-c3ccccc3)cc2)CCSC(N)=N1 [reference compound]         µM             28.1
1  C[C@@]1(c2ccc(-c3ccccc3)cc2)CCSC(N)=N1 [reference compound]         µM             7.82
